Where do these numbers come from? They come from patent US10213429B2.

In this section we review reported Emax values for a set of compounds.
target: sGC α1/β1 heterodimer (Homo sapiens, UniProt Q02108+Q02153); construct: expressed in transfected cells; host or cells: CHO-K1 (clone #7, CHO-K1/sGC); assay: Cell-Based sGC Functional Assay (CASA Assay), cGMP by HTRF in CHO-K1/sGC cells; settings: CHO-K1, percent activation relative to maximum cGMP production of Compound A (= 100%), read-out: % Act.
Sequence (Q02108 whole entry): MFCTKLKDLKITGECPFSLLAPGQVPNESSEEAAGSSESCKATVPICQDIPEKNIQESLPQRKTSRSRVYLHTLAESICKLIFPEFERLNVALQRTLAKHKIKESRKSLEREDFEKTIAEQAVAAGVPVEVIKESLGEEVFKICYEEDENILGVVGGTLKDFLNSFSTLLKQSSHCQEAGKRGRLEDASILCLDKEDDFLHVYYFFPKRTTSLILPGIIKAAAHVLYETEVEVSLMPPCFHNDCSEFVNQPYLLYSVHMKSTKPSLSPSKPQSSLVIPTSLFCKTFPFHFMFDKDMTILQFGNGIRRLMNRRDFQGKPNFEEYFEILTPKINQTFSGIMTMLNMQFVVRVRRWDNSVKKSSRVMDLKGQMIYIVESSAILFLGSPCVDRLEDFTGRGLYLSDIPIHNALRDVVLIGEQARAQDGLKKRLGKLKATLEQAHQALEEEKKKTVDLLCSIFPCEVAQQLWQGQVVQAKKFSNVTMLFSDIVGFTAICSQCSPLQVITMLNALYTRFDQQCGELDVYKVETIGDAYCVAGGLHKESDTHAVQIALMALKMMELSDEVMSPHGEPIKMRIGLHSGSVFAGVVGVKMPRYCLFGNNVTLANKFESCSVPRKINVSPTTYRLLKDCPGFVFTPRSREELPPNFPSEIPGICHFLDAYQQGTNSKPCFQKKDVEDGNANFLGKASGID
Sequence (Q02153 whole entry): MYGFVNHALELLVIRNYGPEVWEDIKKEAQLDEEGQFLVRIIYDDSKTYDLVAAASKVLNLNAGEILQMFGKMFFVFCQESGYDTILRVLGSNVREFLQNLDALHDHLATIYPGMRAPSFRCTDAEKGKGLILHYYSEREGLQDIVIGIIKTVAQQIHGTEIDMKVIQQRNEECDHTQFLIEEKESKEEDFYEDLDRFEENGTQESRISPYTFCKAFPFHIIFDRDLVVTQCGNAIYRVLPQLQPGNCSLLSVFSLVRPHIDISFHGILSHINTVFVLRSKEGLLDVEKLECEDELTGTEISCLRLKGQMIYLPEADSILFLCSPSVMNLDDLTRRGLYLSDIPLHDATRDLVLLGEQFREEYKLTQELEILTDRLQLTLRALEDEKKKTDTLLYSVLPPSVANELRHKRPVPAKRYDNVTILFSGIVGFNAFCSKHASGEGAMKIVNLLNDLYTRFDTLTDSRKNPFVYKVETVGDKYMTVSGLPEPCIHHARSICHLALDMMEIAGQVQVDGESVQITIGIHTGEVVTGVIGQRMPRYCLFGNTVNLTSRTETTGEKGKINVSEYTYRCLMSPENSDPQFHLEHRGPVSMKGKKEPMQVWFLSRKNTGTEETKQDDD

{"columns": ["COMPOUND", "Emax / %"],
 "data": [
  ["CC1(c2ccc(Cl)cn2)C(=O)Nc2nc(-c3cn4ccnc4c(Cc4ccc(F)cc4)n3)nc(O)c21 (stereo not drawn) [Example 16A]", 111],
  ["CC1(c2ccc(F)cc2)C(=O)Nc2nc(-c3cn4ccnc4c(Cc4ccc(F)cc4)n3)nc(O)c21 (stereo not drawn) [Example 81A]", 104],
  ["CCCc1nc(-c2ncc3c(n2)NC(=O)C3(C)c2ccc(Cl)c(F)c2)cn2ccnc12 (stereo not drawn) [Example 38B]", 135],
  ["CCCOc1nc(-c2ncc3c(n2)NC(=O)C3(C)c2ccc(F)cc2)cn2ccnc12 (stereo not drawn) [Example 92A]", 83],
  ["CCc1nc(-c2cn3ccnc3c(CCC(F)(F)C(F)(F)F)n2)nc2c1C(C)(c1ccc(F)cc1)C(=O)N2 (stereo not drawn) [Example 76A]", 130],
  ["O=C1Nc2nc(-c3cn4ccnc4c(CCCC(F)(F)F)n3)nc(O)c2C1(c1ccc(Cl)c(F)c1)C1CC1 (stereo not drawn) [Example 22A]", 126],
  ["CC1(c2ccc(Cl)c(F)c2)C(=O)Nc2nc(-c3cn4ccnc4c(CCC(F)(F)F)n3)ncc21 (stereo not drawn) [Example 56B]", 95],
  ["CCCCc1nc(-c2nc3c(c(C4CC4)n2)C(C)(c2ccc(F)cn2)C(=O)N3)cn2ccnc12 (stereo not drawn) [Example 72B]", 179],
  ["CC1(c2ccc(F)cc2)C(=O)Nc2nc(-c3cn4ccnc4c(CCCC(F)(F)F)n3)ncc21 (stereo not drawn) [Example 64A]", 141],
  ["CC1(c2ccc(F)cn2)C(=O)Nc2nc(-c3cn4ccnc4c(CCCC(F)(F)F)n3)ncc21 (stereo not drawn) [Example 66B]", 125],
  ["CC1(c2ccc(F)cc2)C(=O)Nc2nc(-c3cn4ccnc4c(CCCC(F)(F)F)n3)nc(O)c21 (stereo not drawn) [Example 30A]", 89],
  ["COc1nc(-c2cn3ccnc3c(CCC(F)(F)C(F)(F)F)n2)nc2c1C(C)(c1ccc(F)cc1)C(=O)N2 (stereo not drawn) [Example 89A]", 110],
  ["O=C1Nc2nc(-c3cn4ccnc4c(CCCC(F)(F)F)n3)nc(O)c2C1(c1ccc(F)cc1)C1CC1 (stereo not drawn) [Example 35B]", 148],
  ["CCCCc1nc(-c2nc(O)c3c(n2)NC(=O)C3(C)c2ccc(F)cn2)cn2ccnc12 (stereo not drawn) [Example 83B]", 109],
  ["O=C1Nc2nc(-c3cn4ccnc4c(CCCC(F)(F)F)n3)nc(O)c2C1(c1ccc(Cl)cc1F)C1CC1 (stereo not drawn) [Example 34A]", 124]
]}
